Source listed as ChEMBL document CHEMBL4689842.

# Test system: U2OS
# TEST DETAILS: Multiplex assay against U2OS
# Assay type: toxicity, cell-based
# SETUP CONDITIONS: human, 48 h, 1 µM, compound concentration 1 uM, replicate 2
The compounds listed here are annotated with their Population Mitochondria Different-Phenotype (%).
Please reply with the bare figure in % and do not write the unit itself.

Bench note: what Population Mitochondria Different-Phenotype (%) did `CN1CCN(Cc2ccc(Nc3ncc(Cl)c(Nc4ccccc4S(=O)(=O)N(C)C)n3)cc2)CC1` show?
37

Bench note: what Population Mitochondria Different-Phenotype (%) did `CC(C)(C)NC[C@H](O)COc1nsnc1N1CCOCC1` show?
17

Bench note: what Population Mitochondria Different-Phenotype (%) did `COc1cc(Nc2nccc(-c3cnn4nc(OC)ccc34)n2)cc(C(F)(F)F)c1` show?
17

Bench note: what Population Mitochondria Different-Phenotype (%) did `CC(C)Oc1ccccc1C(=O)Nc1ccccc1C(=O)Nc1cccc(S(=O)(=O)C(F)(F)F)c1` show?
48

Bench note: what Population Mitochondria Different-Phenotype (%) did `CCc1ccc(OCc2ccccc2C(=O)Nc2ccc3nc(C)cc(N)c3c2)cc1.Cl` show?
92
